# key: entry, value: MIC
Test system: P. aeruginosa NB52023 (efflux deficient K1542, ΔmexX ΔmexB)
Assay: microbe, parasite or virus in culture
Format: cell-based
Settings: Pseudomonas aeruginosa, 20 h, read-out: Antibacterial activity (MIC) NB52023
Where a name gives a salt, the structure may show the parent alone.

molecule | subject of test | units symbol | censor symbol | MIC
Cc1c(N2CC[C@@H]([C@H](C)N)C2)c(F)cc2c(C(N)=O)cc(=O)n(C3CC3)c12 | P. aeruginosa NB52023 (efflux deficient K1542, ΔmexX ΔmexB) | µg/mL | = | 16
Cc1c(N2CC[C@@H]([C@H](C)N)C2)c(F)cc2c(OCCNC(=N)N)cc(=O)n(C3CC3)c12 | P. aeruginosa NB52023 (efflux deficient K1542, ΔmexX ΔmexB) | µg/mL | = | 4
Cc1c(N2CC[C@@H]([C@H](C)N)C2)c(F)cc2c(-c3noc(=O)[nH]3)cc(=O)n(C3CC3)c12 | P. aeruginosa NB52023 (efflux deficient K1542, ΔmexX ΔmexB) | µg/mL | = | 32
Cc1c(N2CC[C@@H]([C@H](C)N)C2)c(F)cc2c(-c3ccccc3)cc(=O)n(C3CC3)c12 | P. aeruginosa NB52023 (efflux deficient K1542, ΔmexX ΔmexB) | µg/mL | > | 32
Cc1c(N2CCC(F)(CN)C2)c(F)c(F)c2c(CN)cc(=O)n(C3CCC3)c12 (stereo not shown) [Example 115, TFA salt] | P. aeruginosa NB52023 (efflux deficient K1542, ΔmexX ΔmexB) | µg/mL | = | 8
Cc1c(N2CC[C@@H]([C@H](C)N)C2)c(F)cc2c(OCCN)cc(=O)n(C3CC3)c12 | P. aeruginosa NB52023 (efflux deficient K1542, ΔmexX ΔmexB) | µg/mL | = | 2
COc1cc(=O)n(C2CC2)c2c(C)c(-c3ccc(N)nc3)ccc12 | P. aeruginosa NB52023 (efflux deficient K1542, ΔmexX ΔmexB) | µg/mL | > | 32

---

Target: E. coli DNA topoisomerase IV (Topo IV, ParC-E) (Escherichia coli)
Sequence (P0AFI2 whole entry): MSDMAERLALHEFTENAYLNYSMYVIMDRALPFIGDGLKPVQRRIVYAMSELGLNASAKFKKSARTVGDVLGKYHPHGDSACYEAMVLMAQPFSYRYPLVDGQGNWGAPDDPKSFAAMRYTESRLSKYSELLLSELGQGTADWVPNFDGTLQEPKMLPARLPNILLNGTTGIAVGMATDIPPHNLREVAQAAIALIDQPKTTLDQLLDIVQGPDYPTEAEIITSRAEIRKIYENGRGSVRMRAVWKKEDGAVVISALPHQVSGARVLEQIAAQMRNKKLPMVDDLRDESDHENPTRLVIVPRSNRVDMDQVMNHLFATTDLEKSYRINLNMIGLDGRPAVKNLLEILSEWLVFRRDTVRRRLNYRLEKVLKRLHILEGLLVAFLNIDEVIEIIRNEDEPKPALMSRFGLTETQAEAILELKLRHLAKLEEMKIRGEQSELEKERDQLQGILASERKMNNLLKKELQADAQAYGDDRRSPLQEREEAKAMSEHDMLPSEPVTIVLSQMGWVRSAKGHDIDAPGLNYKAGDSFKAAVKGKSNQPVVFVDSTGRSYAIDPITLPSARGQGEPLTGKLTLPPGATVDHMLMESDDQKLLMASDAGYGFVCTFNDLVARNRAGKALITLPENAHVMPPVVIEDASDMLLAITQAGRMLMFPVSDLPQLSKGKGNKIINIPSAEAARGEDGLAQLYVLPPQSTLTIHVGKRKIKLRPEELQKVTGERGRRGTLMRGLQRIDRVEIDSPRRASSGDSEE
Sequence (P20083 whole entry, further chain): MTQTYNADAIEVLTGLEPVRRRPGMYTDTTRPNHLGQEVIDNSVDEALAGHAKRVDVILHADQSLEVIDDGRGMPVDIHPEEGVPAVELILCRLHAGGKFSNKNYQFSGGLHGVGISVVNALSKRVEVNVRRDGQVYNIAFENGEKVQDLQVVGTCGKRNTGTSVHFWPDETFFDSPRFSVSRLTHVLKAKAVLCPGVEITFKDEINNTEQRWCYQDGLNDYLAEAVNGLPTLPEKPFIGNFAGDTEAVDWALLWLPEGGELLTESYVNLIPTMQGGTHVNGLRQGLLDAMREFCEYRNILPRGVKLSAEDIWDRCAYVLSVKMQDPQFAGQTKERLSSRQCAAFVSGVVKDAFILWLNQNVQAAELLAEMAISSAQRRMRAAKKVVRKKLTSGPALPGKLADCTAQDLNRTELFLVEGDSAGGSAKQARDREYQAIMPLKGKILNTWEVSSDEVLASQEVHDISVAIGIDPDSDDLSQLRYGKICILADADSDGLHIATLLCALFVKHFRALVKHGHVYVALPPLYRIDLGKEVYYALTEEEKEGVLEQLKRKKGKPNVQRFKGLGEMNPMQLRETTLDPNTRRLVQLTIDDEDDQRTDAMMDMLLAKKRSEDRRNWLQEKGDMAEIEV
Assay: Decatenation assay of E. coli Topo IV
Format: biochemical
Settings: decatenation activity of E. coli topoIV (ParC-E); read-out: ParC-E IC50 (Enzyme)
pIC50: −log10 of the molar value. Where a name gives a salt, the structure may show the parent alone.
# key: entry, value: pIC50

molecule | pIC50
Cc1c(N2CC[C@@H]([C@H](C)N)C2)c(F)cc2c(C(=O)NO)cc(=O)n(C3CC3)c12 | 5.47
Cc1c(N2CC[C@@H]([C@H](C)N)C2)ccc2c(OCC3CCOCC3)cc(=O)n(C3CC3)c12 [Example 73, TFA salt] | 5.30
Cc1c(N2CC[C@@H]([C@H](C)N)C2)ccc2c(OCCN(C)C)cc(=O)n(C3CC3)c12 [Example 74, TFA salt] | 6.62
Cc1c(-c2ccc(N)nc2)c(F)cc2ccc(=O)n(C3CC3)c12 | 5.71
Cc1c(N2CC[C@@H]([C@H](C)N)C2)ccc2cc(O)c(=O)n(C3CC3)c12 [Example 79, TFA salt] | 5.74
C#Cc1cc(=O)n(C2CC2)c2c(C)c(N3CC[C@@H]([C@H](C)N)C3)c(F)cc12 | 5.19
Cc1c(N2CC[C@H](N)C2)c(F)cc2c(C#N)cc(=O)n(C3CC3)c12 | 4.84
Cc1c(N2CC[C@@H]([C@H](C)N)C2)c(F)cc2c(-c3n[nH]c(=O)o3)cc(=O)n(C3CC3)c12 | 5.73
Cc1c(N2CC[C@@H]([C@H](C)N)C2)ccc2ccc(=O)n(C3CC3)c12 [Example 76, trifluoroacetic acid salt] | 4.41
Cc1c(N2CC[C@@H]([C@H](C)N)C2)c(F)cc2c(C(N)=O)cc(=O)n(C3CC3)c12 | 5.29
Cc1c(N2CC[C@@H]([C@H](C)N)C2)c(F)cc2c(C#N)cc(=O)n(C3CC3)c12 | 6.23
Cc1c(N2CC[C@@H]([C@H](C)N)C2)c(F)cc2c(CN)cc(=O)n(C3CC3)c12 | 6.62

---

System: P. aeruginosa NB52023 (efflux deficient K1542, ΔmexX ΔmexB)
Assay: microbe, parasite or virus in culture
Assay type: cell-based
Conditions: Pseudomonas aeruginosa, 20 h, read-out: Antibacterial activity (MIC) NB52023
Counter-ions that a name gives are not always drawn.

compound | MIC
COc1cc2cc(F)c(N3CC[C@@H]([C@H](C)N)C3)c(C)c2n(C2CC2)c1=O | 8 µg/mL
Cc1c(N2CC[C@@H]([C@H](C)N)C2)ccc2cc(O)c(=O)n(C3CC3)c12 [Example 79, TFA salt] | > 32 µg/mL
Cl.NCc1c(N2CCC(F)(CN)C2)c(F)cc2ccc(=O)n(C3CC3)c12 (stereo not drawn) | 8 µg/mL

---

Test system: P. aeruginosa NB52019 (wild-type PAO1)
Test: MIC, broth microdilution (CLSI)
Type: cell-based
Details: Pseudomonas aeruginosa; P. aeruginosa wild-type PAO1; 35° C., 20 hours; read-out: Antibacterial activity (MIC) NB52019
readout label: MIC (µg/mL)

molecule | units symbol | censor symbol | data value
Cc1c(N2CCNCC2)c(F)cc2c(CN)cc(=O)n(C3CC3)c12 | µg/mL | = | 4
Cl.N#Cc1c(N2CC[C@H](N)C2)c(F)cc2ccc(=O)n(C3CC3)c12 | µg/mL | = | 16
COc1c(N2CCC(CN)C2)c(F)cc2ccc(=O)n(C3CC3)c12.O=C(O)C(F)(F)F (centres unmarked) | µg/mL | > | 32
Cc1c(N2CC[C@@H]([C@H](C)N)C2)c(F)cc2c(-c3ccccc3)cc(=O)n(C3CC3)c12 | µg/mL | > | 32
Cc1c(N2CCNCC2)c(F)cc2c(C#N)cc(=O)n(C3CC3)c12 | µg/mL | = | 32
Cl.NCc1c(N2CCC(F)(CN)C2)c(F)cc2ccc(=O)n(C3CC3)c12 (centres unmarked) | µg/mL | > | 32
Cc1c(F)c(N2CCC(CN)C2)c(C)c2c1ccc(=O)n2C1CC1.O=C(O)C(F)(F)F (centres unmarked) | µg/mL | > | 32
Cc1c(N2CCNCC2)c(F)cc2ccc(=O)n(C3CC3)c12 | µg/mL | = | 32

---

Test system: P. aeruginosa NB52023-CDK0006 (gyrA T83I, parC S87L)
Assay: microbe, parasite or virus in culture
Format: cell-based
Conditions: Pseudomonas aeruginosa, 20 h, read-out: Antibacterial activity (MIC) NB52023-CDK0006
Counter-ions that a name gives are not always drawn.
readout label: MIC (µg/mL)

compound | readout label | units symbol | data value
Cc1c(N2CCC(F)(CN)C2)c(F)c(F)c2c(CN)cc(=O)n(C3CCC3)c12 (stereo not shown) [Example 115, TFA salt] | MIC | µg/mL | 16
CCOC(=O)/C=C/c1cc(=O)n(C2CC2)c2c(C)c(N3CC[C@@H]([C@H](C)N)C3)c(F)cc12 | MIC | µg/mL | 32
Cc1c(N2CC[C@H](O)C2)c(F)c(F)c2c(CN3CCN(C)CC3)cc(=O)n(C3CC3)c12 | MIC | µg/mL | 32
Cc1c(N2CC[C@H](O)C2)c(F)cc2c(OCCN(C)C)cc(=O)n(C3CC3)c12 | MIC | µg/mL | 32

---

# key: entry, value: MIC
Tested on: P. aeruginosa NB52023-CDK0006 (gyrA T83I, parC S87L)
Test: microbe, parasite or virus in culture
Type: cell-based
Settings: Pseudomonas aeruginosa, 20 h, read-out: Antibacterial activity (MIC) NB52023-CDK0006
Structures can show the parent of a compound that is named as a salt.

compound | censor symbol | MIC (µg/mL)
Cc1c(N2CC[C@@H]([C@H](C)N)C2)c(F)cc2c(OCCN(C)C)cc(=O)n(C3CC3)c12 [Example 49] | = | 8
Cc1c(N2CC[C@@H]([C@H](C)N)C2)c(F)cc2c(-c3n[nH]c(=O)o3)cc(=O)n(C3CC3)c12 [Example 42] | = | 32
Cc1c(N2CC[C@@H]([C@H](C)N)C2)c(F)c(F)c2ccc(=O)n(C3CC3)c12.O=C(O)C(F)(F)F [Example 106] | = | 1
Cc1c(N2CC[C@@H]([C@H](C)N)C2)c(F)cc2c(C(=O)O)cc(=O)n(C3CC3)c12 [Example 33] | > | 32
Cc1c(N2CC[C@H](N)C2)c(F)c(F)c2c(CN)cc(=O)n(C3CC3)c12 [Example 83.6] | = | 0.5
Cc1c(N2CCC(CN)C2)c(F)c(CN)c2ccc(=O)n(C3CC3)c12.O=C(O)C(F)(F)F (stereo not shown) [Example 100] | = | 16
Cc1c(N2CC[C@@H]([C@H](C)N)C2)c(F)cc2c(NS(C)(=O)=O)cc(=O)n(C3CC3)c12 [Example 37] | > | 32
Cc1c(N2CCC(F)(CN)C2)c(F)cc2cc(CN)c(=O)n(C3CC3)c12 (stereo not shown) [Example 93, formic acid salt] | = | 8
Cc1c(N2CC[C@@H]([C@H](C)N)C2)c(F)cc2c(OCCCC#N)cc(=O)n(C3CC3)c12 [Example 57] | > | 32
Cc1c(N2CC[C@@H]([C@H](C)N)C2)c(F)cc2c(C(=N)NO)cc(=O)n(C3CC3)c12 [Example 40] | = | 8
Cc1c(N2CC[C@@H]([C@H](C)N)C2)c(F)cc2c(/C=C/C(=O)O)cc(=O)n(C3CC3)c12 [Example 22] | > | 32
Cc1c(N2CC[C@@H]([C@H](C)N)C2)ccc2cc(O)c(=O)n(C3CC3)c12 [Example 79, TFA salt] | > | 32
COc1cc2cc(F)c(N3CC[C@@H]([C@H](C)N)C3)c(C)c2n(C2CC2)c1=O [Example 6] | = | 32
Cc1c(N2CC[C@@H]([C@H](C)N)C2)c(F)cc2c(CN)cc(=O)n(C3CC3)c12 [Example 45] | = | 2
Cc1c(N2CC[C@@H]([C@H](C)N)C2)c(F)cc2c(OCCCC(=O)O)cc(=O)n(C3CC3)c12 [Example 61] | > | 32
Cc1c(N2CC[C@@H]([C@H](C)N)C2)c(F)cc2ccc(=O)n(C3CC3)c12.Cl [Example 9.1] | = | 8
Cl.N#Cc1c(N2CC[C@H](N)C2)c(F)cc2ccc(=O)n(C3CC3)c12 [Example 113] | = | 4
Cc1c(N2CC[C@@H]([C@H](C)N)C2)c(F)cc2c(CO)cc(=O)n(C3CC3)c12 [Example 47] | = | 8
Cc1c(N2CC[C@@H]([C@H](C)N)C2)c(F)cc2c(N)cc(=O)n(C3CC3)c12 [Example 36] | > | 16
Cc1c(N2CCC(CN)C2)c(F)c(C#N)c2ccc(=O)n(C3CC3)c12.O=C(O)C(F)(F)F (stereo not shown) [Example 99] | = | 4
Cc1c(-c2ccc(N)nc2)c(F)cc2ccc(=O)n(C3CC3)c12 [Example 10] | = | 8
Cc1c(N2CC[C@@H]([C@H](C)N)C2)c(F)cc2c(Cl)cc(=O)n(C3CC3)c12 [Example 44] | = | 8
Cc1c(N2CCC(F)(CN)C2)c(F)cc2cc(CO)c(=O)n(C3CC3)c12 (stereo not shown) [Example 96] | = | 8
Cc1c(C#N)c2cc(F)c(N3CC[C@@H]([C@H](C)N)C3)c(C)c2n(C2CC2)c1=O [Example 28] | = | 0.5
COc1cc(=O)n(C2CC2)c2c(C)c(N3CC[C@@H]([C@H](C)N)C3)c(F)cc12 [Example 67] | = | 16
Cc1c(N2CCC(CN)C2)c(F)cc2c(CNCCN)cc(=O)n(C3CC3)c12.O=C(O)C(F)(F)F (stereo not shown) [Example 87] | = | 8
Cc1c(N2CC[C@@H]([C@H](C)N)C2)c(F)cc2c(OCc3n[nH]c(=O)o3)cc(=O)n(C3CC3)c12 [Example 64] | > | 32
Cc1c(N2CC[C@@H](CN)C2)c(F)cc2c(C#N)cc(=O)n(C3CC3)c12 [Example 31] | = | 4
Cc1c(N2CCC(C3(N)CC3)C2)c(F)cc2ccc(=O)n(C3CC3)c12 (stereo not shown) [Example 9.2] | = | 32
Cc1c(N2CC[C@@H]([C@H](C)N)C2)ccc2c(O)cc(=O)n(C3CC3)c12 [Example 72, TFA salt] | > | 32
COc1cc(=O)n(C2CC2)c2c(C)c(-c3ccc(N)nc3)ccc12 [Example 69] | > | 32
